Where do these numbers come from? They come from PubChem BioAssay (EPA / NIEHS).

- Read-out: Interleukin-1 alpha (IL1a), IL1A (gene 3552)
- Measurement Protocol: BSK_KF3CT_IL1a: BioMAP Diversity Plus: KF3CT Assay for Interleukin-1 alpha (IL1a) Biomarker Activity (AID 2283070)
- Test Context: primary human keratinocytes with fibroblasts; actives raise or lower the signal
Activity calls are given as the source filed them. Rule for the calls: active = hit-call score of the fitted dose curve at least 0.9, where 1 is the maximum; inactive = score below 0.9.
Labels: 1 (yes) (active), 0 (no) (inactive)

Compound	Class Label
CCCC[N+](CCCC)(CCCC)CCCC	0 (no)
O=P1(NCCCl)OCCCN1CCCl (configuration not stated)	0 (no)
CC(C)CCCCCCCOP(=O)(Oc1ccccc1)Oc1ccccc1	1 (yes)
CC(C)CCCCCCCOC(=O)c1ccccc1C(=O)OCCCCCCCC(C)C	0 (no)
O=C(CCl)c1ccccc1	1 (yes)
N#CCCCCC#N	0 (no)
O=c1[nH]c(Cl)c(Cl)cc1Cl	0 (no)

* * *

- Subject Of Test: Cellular tumor antigen p53 (Homo sapiens) (UniProt P04637)
- Sequence (P04637 whole entry, looked up): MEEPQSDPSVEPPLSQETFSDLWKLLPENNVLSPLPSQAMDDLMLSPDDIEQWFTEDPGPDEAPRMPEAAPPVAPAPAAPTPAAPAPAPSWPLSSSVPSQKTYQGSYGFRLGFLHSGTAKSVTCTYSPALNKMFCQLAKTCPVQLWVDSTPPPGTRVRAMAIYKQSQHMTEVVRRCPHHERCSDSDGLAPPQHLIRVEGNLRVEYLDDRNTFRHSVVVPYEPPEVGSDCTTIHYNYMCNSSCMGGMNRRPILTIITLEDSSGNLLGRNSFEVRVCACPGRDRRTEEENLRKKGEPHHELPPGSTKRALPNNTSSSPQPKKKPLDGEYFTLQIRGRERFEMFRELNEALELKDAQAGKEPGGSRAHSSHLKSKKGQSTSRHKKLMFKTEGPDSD
- Measurement Protocol: ATG_p53_CIS: Attagene CIS-FACTORIAL HepG2 Assay for human p53 Transcription Factor (AID 2282994)
- Test Context: HepG2 p53 cis-element reporter, Attagene mRNA; actives raise or lower the signal
Calls of active or inactive are those of the source. How the source made its calls: active means hit-call score of the fitted dose curve at least 0.9, where 1 is the maximum; inactive means score below 0.9.
Classes used: active, inactive

Molecule	Subject Of Test	Class Label
C=CCc1ccc(OC(=O)Cc2ccccc2)c(OC)c1	Cellular tumor antigen p53 (Homo sapiens) (UniProt P04637)	inactive
CC1(C)[C@H](C(=O)O[C@H](C#N)c2cccc(Oc3ccccc3)c2)[C@@H]1C=C(Br)Br	Cellular tumor antigen p53 (Homo sapiens) (UniProt P04637)	inactive
N#CC(c1ccccc1)c1ccccc1	Cellular tumor antigen p53 (Homo sapiens) (UniProt P04637)	inactive
CC(C)c1ccc(O)cc1	Cellular tumor antigen p53 (Homo sapiens) (UniProt P04637)	inactive
c1cc(OCC2CO2)ccc1Cc1ccc(OCC2CO2)cc1 (centres undefined)	Cellular tumor antigen p53 (Homo sapiens) (UniProt P04637)	active
O=C(NC(=O)c1c(F)cccc1F)Nc1ccc(Oc2ccc(C(F)(F)F)cc2Cl)cc1F	Cellular tumor antigen p53 (Homo sapiens) (UniProt P04637)	inactive
C=CC(=O)OCC(CC)CCCC (centres undefined)	Cellular tumor antigen p53 (Homo sapiens) (UniProt P04637)	inactive
CC(C)(C)C(O)C(Oc1ccc(-c2ccccc2)cc1)n1cncn1 (centres undefined)	Cellular tumor antigen p53 (Homo sapiens) (UniProt P04637)	active
C[C@]12CC[C@H]3[C@@H](CC[C@@]45O[C@@H]4C(O)=C(C#N)C[C@]35C)[C@@H]1CC[C@@H]2O	Cellular tumor antigen p53 (Homo sapiens) (UniProt P04637)	inactive
C=CCO	Cellular tumor antigen p53 (Homo sapiens) (UniProt P04637)	inactive
Oc1cc(Cl)ccc1Cl	Cellular tumor antigen p53 (Homo sapiens) (UniProt P04637)	inactive
N#CCCCCC#N	Cellular tumor antigen p53 (Homo sapiens) (UniProt P04637)	inactive
Nc1ccc([N+](=O)[O-])cc1N	Cellular tumor antigen p53 (Homo sapiens) (UniProt P04637)	inactive
C=Cc1cccc(CCl)c1	Cellular tumor antigen p53 (Homo sapiens) (UniProt P04637)	inactive
N#CCNCC#N	Cellular tumor antigen p53 (Homo sapiens) (UniProt P04637)	inactive
CCOC(=O)COc1ccc(Cl)cc1Cl	Cellular tumor antigen p53 (Homo sapiens) (UniProt P04637)	inactive
Oc1ccc(Cl)cc1	Cellular tumor antigen p53 (Homo sapiens) (UniProt P04637)	inactive
Nc1cc(Cl)cc(Cl)c1	Cellular tumor antigen p53 (Homo sapiens) (UniProt P04637)	inactive
O=CNC(N1CCN(C(NC=O)C(Cl)(Cl)Cl)CC1)C(Cl)(Cl)Cl (centres undefined)	Cellular tumor antigen p53 (Homo sapiens) (UniProt P04637)	active
CC(C)(O)C#N	Cellular tumor antigen p53 (Homo sapiens) (UniProt P04637)	inactive
Clc1ccc(-c2ccccc2)cc1	Cellular tumor antigen p53 (Homo sapiens) (UniProt P04637)	inactive
ClC1=C(Cl)[C@]2(Cl)[C@@H]3[C@@H](Cl)[C@H](Cl)C[C@@H]3[C@@]1(Cl)C2(Cl)Cl	Cellular tumor antigen p53 (Homo sapiens) (UniProt P04637)	inactive
N#Cc1cc(I)c(O)c(I)c1	Cellular tumor antigen p53 (Homo sapiens) (UniProt P04637)	inactive
CCCCCc1cc(O)cc(O)c1	Cellular tumor antigen p53 (Homo sapiens) (UniProt P04637)	inactive
Cc1ccc(N(SC(F)(Cl)Cl)S(=O)(=O)N(C)C)cc1	Cellular tumor antigen p53 (Homo sapiens) (UniProt P04637)	inactive
Nc1ccc(Cl)c(Cl)c1	Cellular tumor antigen p53 (Homo sapiens) (UniProt P04637)	inactive
O=C(O)C(Br)Br	Cellular tumor antigen p53 (Homo sapiens) (UniProt P04637)	inactive
O=C(CCl)c1ccccc1	Cellular tumor antigen p53 (Homo sapiens) (UniProt P04637)	active
O=[N+]([O-])c1ccc(Cl)cc1	Cellular tumor antigen p53 (Homo sapiens) (UniProt P04637)	inactive
